Test system: Pa16c cells
TEST METHOD NOTES: Pa16c Cell Proliferation Assay
Assay type: cell-based
ASSAY CONDITIONS: Table 2, read-out: Inhibition of cell proliferation in Pa16c (IC50 class)
Reported IC50 by item:

In the examples that follow, each entry is paired with its recorded IC50.
1) CCNc1cc(-c2cc(-c3cc(NC(=O)c4cc(C(F)(F)F)cnn4)ccc3C)ccn2)ccn1: 500 to 1000 nM
2) Cc1ccc(NC(=O)c2cc(C(F)(F)F)cnn2)cc1-c1ccnc(-c2ccnc(NC(=O)C3(C)CC3)c2)c1: < 100 nM
3) Cc1ccc(NC(=O)c2cc(C(F)(F)F)cnn2)cc1-c1cccc(-c2cc(NC(=O)C3CC3)ncn2)c1: 1000 to 10000 nM
4) Cc1ccc(NC(=O)c2cc(Br)cnn2)cc1-c1ccnc(-c2ccnc(NC(=O)C3CC3)c2)c1: 500 to 1000 nM

Which IC50 is listed for CC(=O)Nc1cc(-c2cc(-c3cc(NC(=O)c4ccc(C(F)F)nc4)c(F)cc3C)ccn2)ccn1 ?
100 to 500 nM

* * *

Reported IC50 by item:
Test system: Pa16c cells
TEST METHOD NOTES: Pa16c Cell Proliferation Assay
Type: cell-based
ASSAY CONDITIONS: Table 2, read-out: Inhibition of cell proliferation in Pa16c (IC50 class)

In the examples that follow, each entry is paired with its recorded IC50.
1. Cc1ccc(NC(=O)c2cncc(C(C)(F)F)c2)cc1-c1cncc(-c2cc(NC(=O)C3CC3)ncn2)c1: 1000 to 10000 nM
2. Cc1ccc(NC(=O)c2cc(C(F)(F)F)cnn2)cc1-c1cncc(-c2cc(NC(=O)C(F)(F)F)ncn2)c1: 500 to 1000 nM
3. Cc1ccc(NC(=O)c2cc(C3CCC3)cnn2)cc1-c1ccnc(-c2ccnc(NC(=O)C3CC3)c2)c1: < 100 nM

Which IC50 is listed for Cc1ccc(NC(=O)c2cc(C(F)(F)F)cnn2)cc1-c1ccnc(-c2ccnc(NC=O)c2)c1 ?
< 100 nM

Thanks! And Cc1ccc(NC(=O)c2cc(C(F)(F)F)cnn2)cc1-c1ccnc(-c2ccnc(NC(=O)C(F)(F)F)c2)c1 ?
< 100 nM

* * *

EXPERIMENTAL SYSTEM: B-Raf kinase (SEQ ID NO: 1) (Homo sapiens, UniProt P15056)
Construct: GST (N); purchased Sigma
Sequence (P15056 416-766): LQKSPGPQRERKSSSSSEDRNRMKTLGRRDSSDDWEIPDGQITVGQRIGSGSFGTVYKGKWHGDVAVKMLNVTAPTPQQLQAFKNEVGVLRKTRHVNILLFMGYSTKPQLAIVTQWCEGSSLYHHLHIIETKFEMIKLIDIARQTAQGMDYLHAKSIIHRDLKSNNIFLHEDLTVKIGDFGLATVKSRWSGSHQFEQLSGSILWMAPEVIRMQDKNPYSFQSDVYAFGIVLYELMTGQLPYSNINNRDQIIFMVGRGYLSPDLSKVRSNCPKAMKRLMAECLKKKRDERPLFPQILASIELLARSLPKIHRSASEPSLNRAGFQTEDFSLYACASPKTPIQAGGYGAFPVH
TEST METHOD NOTES: Biochemical Assay for B-Raf (coupled pyruvate kinase/lactate dehydrogenase assay)
ASSAY CONDITIONS: 1 mM ATP; read-out: BRAF (inhibition of biochemical activity, IC50)
pIC50: −log10 of the molar value.
Reported pIC50 by item:

1. O=C(Nc1ccc(F)c(-c2ccnc(-c3ccnc(NC(=O)C4CC4)c3)c2)c1)c1cc(C(F)(F)F)cnn1: > 7.00
2. Cc1ccc(NC(=O)c2cc(C#N)cnn2)cc1-c1ccnc(-c2ccnc(NC(=O)C3CC3)c2)c1: > 7.00
3. CC(=O)Nc1cc(-c2cc(-c3cc(NC(=O)c4ccc(C(F)(F)F)nc4)ccc3C)nn(C)c2=O)ccn1: 5.00 to 6.00

Which pIC50 is listed for Cc1ccc(NC(=O)c2cc(C(F)(F)F)cnn2)cc1-c1ccnc(-c2cnn(C)n2)c1 ?
6.30 to 7.00

Thanks! And Cc1ccc(NC(=O)c2cc(C(C)C)cnn2)cc1-c1cncc(-c2ccnc(NC(=O)C3CC3)c2)c1 ?
> 7.00

Thanks! And Cc1ccc(NC(=O)c2cc(C3CC3)cnn2)cc1-c1cc(-c2ccnc(NC(=O)C3CC3)c2)nc(NCCO)n1 ?
> 7.00

Thanks! And Cc1ccc(NC(=O)c2ccc(C(F)(F)F)nc2)cc1-c1cncc(-c2cc(NC(=O)C3CC3)ncn2)c1 ?
> 7.00

* * *

Test system: Pa16c cells
TEST METHOD NOTES: Pa16c Cell Proliferation Assay
Type: cell-based
ASSAY CONDITIONS: Table 2, read-out: Inhibition of cell proliferation in Pa16c (IC50 class)
pIC50: −log10 of the molar value.
TEST READOUT: pIC50

In the examples that follow, each entry is paired with its recorded pIC50.
1) O=C(Nc1ccc(F)c(-c2ccnc(-c3ccnc(NC(=O)C4CC4)c3)c2)c1)c1cc(C(F)(F)F)cnn1: 5.00 to 6.00
2) Cc1ccc(NC(=O)c2cc(C3CC3)cnn2)cc1-c1ccnc(-c2cnn(C)n2)c1: 6.00 to 6.30
3) Cc1ccc(NC(=O)c2cc(C(F)(F)F)cnn2)cc1-c1ccnc(-c2ccnc(NC(=O)C3CCC3)c2)c1: > 7.00
4) Cc1ccc(NC(=O)c2cc(C(C)C)cnn2)cc1-c1cncc(-c2ccnc(NC(=O)C3CC3)c2)c1: 5.00 to 6.00
5) CC(=O)Nc1cc(-c2cncc(-c3cc(NC(=O)c4cc(C(F)(F)F)cnn4)ccc3C)c2)ncn1: 5.00 to 6.00

Which pIC50 is listed for Cc1ccc(NC(=O)c2cc(C(C)(F)F)cnn2)cc1-c1ccnc(-c2cscn2)c1 ?
5.00 to 6.00

Thanks! And Cc1ccc(NC(=O)c2cc(C(F)(F)F)cnn2)cc1-c1cc(N[C@H](C)CO)nc(-c2ccnc(NC(=O)C3CC3)c2)c1 ?
6.30 to 7.00

* * *

Reported pIC50 by item:
Test system: Pa16c cells
TEST METHOD NOTES: Pa16c Cell Proliferation Assay
Format: cell-based
ASSAY CONDITIONS: Table 2, read-out: Inhibition of cell proliferation in Pa16c (IC50 class)
pIC50: −log10 of the molar value.

In the examples that follow, each entry is paired with its recorded pIC50.
1) Cc1ccc(NC(=O)c2cc(N)cnn2)cc1-c1ccnc(-c2ccnc(NC(=O)C3CC3)c2)c1 [Example 99]: 5.00 to 6.00
2) Cc1ccc(NC(=O)c2cc(C(C)(F)F)cnn2)cc1-c1cc(N[C@H](C)CO)nc(-c2cn[nH]c2)c1 [Example 121]: > 7.00
3) Cc1ccc(NC(=O)c2cc(C(C)(F)F)cnn2)cc1-c1ccnc(-c2cnn(C)n2)c1 [Example 140]: 5.00 to 6.00

Return pIC50 measured with Pa16c cells given this compound: Cc1ccc(NC(=N)c2cc(C(F)(F)F)cnn2)cc1-c1ccnc(-c2ccnc(NC(=O)C3CC3)c2)c1 [Example 86]
5.00 to 6.00

Thanks! And Cc1ccc(NC(=O)c2cc(C(F)(F)F)cnn2)cc1-c1ccnc(-c2cnn(C)n2)c1 [Example 139] ?
6.00 to 6.30

Thanks! And CONc1cc(-c2cc(-c3cc(NC(=O)c4cc(C(F)(F)F)cnn4)ccc3C)ccn2)ccn1 [Example 128] ?
6.00 to 6.30

* * *

Tested on: Pa16c cells
TEST METHOD NOTES: Pa16c Cell Proliferation Assay
Type: cell-based
ASSAY CONDITIONS: Table 2, read-out: Inhibition of cell proliferation in Pa16c (IC50 class)
Reported IC50 by item:

In the examples that follow, each entry is paired with its recorded IC50.
1. Cc1ccc(NC(=N)c2cc(C3CC3)cnn2)cc1-c1ccnc(-c2ccnc(NC(=O)C3CC3)c2)c1: 1000 to 10000 nM
2. CC(=O)Nc1cc(-c2cc(-c3cc(NC(=O)c4ccc(C(F)F)nc4)ccc3C)ccn2)ccn1: < 100 nM
3. Cc1ccc(NC(=O)c2cc(C)c(C)nn2)cc1-c1ccnc(-c2ccnc(NC(=O)C3CC3)c2)c1: 1000 to 10000 nM
4. Cc1ccc(NC(=O)c2cc(C(F)(F)F)cnn2)cc1-c1cncc(-c2ccnc(NC(=O)C3CC3)c2)c1: 100 to 500 nM
5. Cc1ccc(NC(=O)c2ccc(C(F)(F)F)nn2)cc1-c1cncc(-c2cc(NC(=O)C3CC3)ncn2)c1: 1000 to 10000 nM
6. Cc1ccc(NC(=O)c2cc(C3CC3)cnn2)cc1-c1ccnc(-c2ccnc(NC(=O)C3CC3)c2)c1: < 100 nM
7. Cc1ccc(NC(=O)c2cncc(C(C)(C)C#N)c2)cc1-c1cncc(-c2ccnc(NC(=O)C3CC3)c2)n1: 1000 to 10000 nM
8. COC(=O)Nc1cc(-c2cncc(-c3cc(NC(=O)c4ccc(C(F)(F)F)nc4)ccc3C)c2)ncn1: 1000 to 10000 nM
9. Cc1ccc(NC(=O)c2cc(C3CC3)cnn2)cc1-c1cncc(-c2cc(NC(=O)C3CC3)ncn2)c1: 1000 to 10000 nM
10. CCn1cc(-c2cc(-c3cc(NC(=O)c4cc(C(F)(F)F)cnn4)ccc3C)ccn2)cn1: 100 to 500 nM

Which IC50 is listed for Cc1ccc(NC(=O)c2cnc(C(F)(F)F)cn2)cc1-c1ccnc(-c2ccnc(NC(=O)C3CC3)c2)c1 ?
1000 to 10000 nM

Thanks! And Cc1ccc(NC(=O)c2cc(C(F)(F)F)cnn2)cc1-c1ccnc(-c2ccnc(NCCO)c2)c1 ?
100 to 500 nM

Thanks! And COC(=O)Nc1cc(-c2ccnc(-c3cc(NC(=O)c4ccc(C(F)(F)F)nc4)ccc3C)n2)ccn1 ?
1000 to 10000 nM

Thanks! And Cc1ccc(NC(=O)c2cnc(C(F)(F)F)nc2)cc1-c1cc(N[C@H](C)CO)nc(-c2cn[nH]c2)c1 ?
1000 to 10000 nM

Thanks! And Cc1cc(-c2cc(NC(=O)c3cncc(C(F)(F)F)c3)ccc2C)cc(-c2ccnc(NC(=O)C3CC3)c2)n1 ?
1000 to 10000 nM
